- study_system: U1A E19F:F56A (UniProt P09012 10-89, E19F;F56A)
- Sequence (P09012 10-89 E19F/F56A): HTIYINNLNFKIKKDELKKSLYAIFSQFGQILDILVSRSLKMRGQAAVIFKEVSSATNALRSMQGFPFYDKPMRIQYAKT
- test_description: fluorescence polarization
quantity_name: Kd
Answer format reminder: number followed by unit.

Entry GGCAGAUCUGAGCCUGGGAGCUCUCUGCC (structured_RNA) [TAR RNA] has what Kd?
20.9 µM
